The origin of these recorded values is paper PMC4403932.

molecular target: BRD2(1) (Homo sapiens, UniProt P25440); construct: Fragments were tested in a thermal shift assay against bromodomains of the BET subfamily; made in house; assay: Protein stability (thermal) shift assay, BRD2(1); assay type: binding; conditions: compound 10 μM, protein 2 μM; average of triplicate
Sequence (P25440 74-180 limits assumed): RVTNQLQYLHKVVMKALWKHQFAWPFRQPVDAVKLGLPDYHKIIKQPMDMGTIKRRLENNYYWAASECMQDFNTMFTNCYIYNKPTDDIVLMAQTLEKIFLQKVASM
attributeMeasured: ΔTm at 10 µM (°C)
Field: numeric (°C). Do not append units.

State ΔTm at 10 µM (BRD2(1) (Homo sapiens, UniProt P25440)) of "Nc1nc(-c2ccccc2)c2nc[nH]c2n1" .
1.7

Identify measured ΔTm at 10 µM obtained with BRD2(1) (Homo sapiens, UniProt P25440) for "Cn1cnc2c(-c3cccc(OCc4ccc(Cl)cc4)c3)nc(N)nc21" .
-0.15

Report ΔTm at 10 µM under test system BRD2(1) (Homo sapiens, UniProt P25440) for "COc1ccc(-c2nc(N)nc3[nH]cnc23)cc1" .
-0.253

Recall the reported ΔTm at 10 µM of "Nc1nc(-c2ccc3c(c2)OCCO3)c2nc[nH]c2n1" when tested on BRD2(1) (Homo sapiens, UniProt P25440).
-0.3

For BRD2(1) (Homo sapiens, UniProt P25440), give ΔTm at 10 µM of the listed compound: "Clc1nc(Cl)c2nc[nH]c2n1"
0.361

GET ΔTm at 10 µM | system: BRD2(1) (Homo sapiens, UniProt P25440) | item: "COc1ccc(Cl)cc1-c1nc(O)nc2[nH]cnc12"
2.1

For BRD2(1) (Homo sapiens, UniProt P25440), give ΔTm at 10 µM of the listed compound: "COc1ccc(F)cc1-c1ncnc2[nH]c(C)nc12"
0.0729

GET ΔTm at 10 µM where system = BRD2(1) (Homo sapiens, UniProt P25440) and item = "COc1ccc(F)cc1-c1nc(O)nc2[nH]cnc12"
1

Lab note: BRD2(1) (Homo sapiens, UniProt P25440) assay, enter ΔTm at 10 µM for "Nc1nc(-c2ccc(OCc3ccccc3)cc2)c2nc[nH]c2n1" here
2
